Would you kindly list binding signal for each of these sequences?
# Test system: POU2 (OCT2 POU domain);BOB1 (OBF1, OCA-B) (human;human, UniProt P09086;Q16633 175-386;1-256, |)
# Sequence 1: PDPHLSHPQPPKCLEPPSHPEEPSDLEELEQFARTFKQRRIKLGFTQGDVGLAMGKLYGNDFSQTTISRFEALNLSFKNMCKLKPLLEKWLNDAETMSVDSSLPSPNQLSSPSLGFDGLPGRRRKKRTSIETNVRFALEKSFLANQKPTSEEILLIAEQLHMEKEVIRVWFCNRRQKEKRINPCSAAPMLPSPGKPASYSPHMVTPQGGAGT
# Sequence 2: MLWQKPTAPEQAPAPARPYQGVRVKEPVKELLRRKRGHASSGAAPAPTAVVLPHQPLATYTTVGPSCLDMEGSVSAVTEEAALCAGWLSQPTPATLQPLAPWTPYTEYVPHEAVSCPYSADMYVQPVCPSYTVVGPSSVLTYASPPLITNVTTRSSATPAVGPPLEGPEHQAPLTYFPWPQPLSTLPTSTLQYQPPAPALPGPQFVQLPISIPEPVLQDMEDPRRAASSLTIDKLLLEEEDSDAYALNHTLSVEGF
# Measurement protocol: EMSA-SELEX-seq; with BOB1 (ternary complex band); 20 mM Tris-HCl pH 7.6, 140 mM NaCl, 10% glycerol, 0.5 mM EDTA, 0.05% Triton X-100, 0.1 mg/mL BSA, 0.1 mg/mL poly(dI-dC), 5 mM DTT, room temperature, 20 min; high values mean tight binding
# Conditions: protein: recombinant;recombinant; copies: 1;1; dsDNA, one strand shown

The reported value for ACTCTAAT in terms of binding signal is 0.0405 % of ANNNNAAN 8-mers

The reported value for ACACCAAA in terms of binding signal is 0.0149 % of ANNNNAAN 8-mers

The reported value for AGGATAAA in terms of binding signal is 0.0718 % of ANNNNAAN 8-mers

The reported value for AGGAAAAA in terms of binding signal is 0.102 % of ANNNNAAN 8-mers

The reported value for ATCACAAG in terms of binding signal is 0.0446 % of ANNNNAAN 8-mers

The reported value for ATGCAAAA in terms of binding signal is 3.29 % of ANNNNAAN 8-mers

The reported value for AATGAAAA in terms of binding signal is 0.114 % of ANNNNAAN 8-mers

The reported value for ACGAGAAA in terms of binding signal is 0.038 % of ANNNNAAN 8-mers

The reported value for ATGTCAAA in terms of binding signal is 0.0652 % of ANNNNAAN 8-mers

The reported value for ATTCGAAA in terms of binding signal is 0.0578 % of ANNNNAAN 8-mers

The reported value for ATCAAAAG in terms of binding signal is 0.0388 % of ANNNNAAN 8-mers

The reported value for ATCTCAAT in terms of binding signal is 0.0768 % of ANNNNAAN 8-mers

The reported value for AAAGAAAT in terms of binding signal is 0.0958 % of ANNNNAAN 8-mers

The reported value for ACGCCAAG in terms of binding signal is 0.014 % of ANNNNAAN 8-mers

The reported value for ACCAGAAC in terms of binding signal is 0.0223 % of ANNNNAAN 8-mers

The reported value for ACGTTAAG in terms of binding signal is 0.0405 % of ANNNNAAN 8-mers

The reported value for ATAGGAAC in terms of binding signal is 0.0545 % of ANNNNAAN 8-mers

The reported value for ACAGAAAC in terms of binding signal is 0.0231 % of ANNNNAAN 8-mers

The reported value for AATCAAAC in terms of binding signal is 0.0405 % of ANNNNAAN 8-mers

The reported value for AGGTAAAG in terms of binding signal is 0.071 % of ANNNNAAN 8-mers

The reported value for AGGGAAAT in terms of binding signal is 0.713 % of ANNNNAAN 8-mers

The reported value for AAGGTAAG in terms of binding signal is 0.0545 % of ANNNNAAN 8-mers

====

Would you kindly list binding signal for each of these sequences?
# Test system: POU2 (OCT2 POU domain) (human, UniProt P09086 175-386)
# Sequence: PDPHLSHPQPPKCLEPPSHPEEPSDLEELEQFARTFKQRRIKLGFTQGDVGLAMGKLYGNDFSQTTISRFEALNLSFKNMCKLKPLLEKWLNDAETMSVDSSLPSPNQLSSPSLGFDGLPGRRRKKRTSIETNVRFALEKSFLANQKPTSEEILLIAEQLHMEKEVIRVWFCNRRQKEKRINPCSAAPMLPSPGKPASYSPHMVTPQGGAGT
# Measurement protocol: EMSA-SELEX-seq; no BOB1; 20 mM Tris-HCl pH 7.6, 140 mM NaCl, 10% glycerol, 0.5 mM EDTA, 0.05% Triton X-100, 0.1 mg/mL BSA, 0.1 mg/mL poly(dI-dC), 5 mM DTT, room temperature, 20 min; high values mean tight binding
# Conditions: protein: recombinant; dsDNA, one strand shown

Measured binding signal for this entry AAGGTAAC on POU2 (OCT2 POU domain) (human, UniProt P09086 175-386): 0.0293 % of ANNNNAAN 8-mers

Measured binding signal for this entry ATAAAAAC on POU2 (OCT2 POU domain) (human, UniProt P09086 175-386): 0.0633 % of ANNNNAAN 8-mers

Measured binding signal for this entry AACCGAAC on POU2 (OCT2 POU domain) (human, UniProt P09086 175-386): 0.0173 % of ANNNNAAN 8-mers

Measured binding signal for this entry AGCGCAAA on POU2 (OCT2 POU domain) (human, UniProt P09086 175-386): 0.0305 % of ANNNNAAN 8-mers

Measured binding signal for this entry AGAAGAAC on POU2 (OCT2 POU domain) (human, UniProt P09086 175-386): 0.0288 % of ANNNNAAN 8-mers

Measured binding signal for this entry AAGAGAAC on POU2 (OCT2 POU domain) (human, UniProt P09086 175-386): 0.0391 % of ANNNNAAN 8-mers

Measured binding signal for this entry AAGCGAAC on POU2 (OCT2 POU domain) (human, UniProt P09086 175-386): 0.0178 % of ANNNNAAN 8-mers

Measured binding signal for this entry AATGCAAT on POU2 (OCT2 POU domain) (human, UniProt P09086 175-386): 0.0949 % of ANNNNAAN 8-mers

Measured binding signal for this entry ATGGGAAG on POU2 (OCT2 POU domain) (human, UniProt P09086 175-386): 0.0696 % of ANNNNAAN 8-mers

Measured binding signal for this entry AGGAAAAC on POU2 (OCT2 POU domain) (human, UniProt P09086 175-386): 0.0552 % of ANNNNAAN 8-mers

Measured binding signal for this entry ATGAAAAG on POU2 (OCT2 POU domain) (human, UniProt P09086 175-386): 0.106 % of ANNNNAAN 8-mers

====

# Test system: POU2 (OCT2 POU domain) (human, UniProt P09086 175-386)
# Sequence: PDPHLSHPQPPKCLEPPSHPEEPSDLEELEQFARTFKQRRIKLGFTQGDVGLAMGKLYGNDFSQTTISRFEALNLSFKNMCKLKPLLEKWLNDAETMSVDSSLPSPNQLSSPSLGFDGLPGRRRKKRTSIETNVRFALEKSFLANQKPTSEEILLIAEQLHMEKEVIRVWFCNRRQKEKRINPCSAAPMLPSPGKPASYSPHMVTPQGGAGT
# Measurement protocol: EMSA-SELEX-seq; no BOB1; 20 mM Tris-HCl pH 7.6, 140 mM NaCl, 10% glycerol, 0.5 mM EDTA, 0.05% Triton X-100, 0.1 mg/mL BSA, 0.1 mg/mL poly(dI-dC), 5 mM DTT, room temperature, 20 min; high values mean tight binding
# Conditions: protein: recombinant; dsDNA, one strand shown
Would you kindly list binding signal for each of these sequences?

The reported value for AATGCAAG in terms of binding signal is 0.0512 % of ANNNNAAN 8-mers

The reported value for AAGTTAAT in terms of binding signal is 0.178 % of ANNNNAAN 8-mers

The reported value for AAAAAAAC in terms of binding signal is 0.0593 % of ANNNNAAN 8-mers

The reported value for ATGTGAAT in terms of binding signal is 0.158 % of ANNNNAAN 8-mers

The reported value for AAACGAAC in terms of binding signal is 0.0293 % of ANNNNAAN 8-mers

The reported value for AGCACAAT in terms of binding signal is 0.0311 % of ANNNNAAN 8-mers

The reported value for ATGTAAAA in terms of binding signal is 0.496 % of ANNNNAAN 8-mers

The reported value for AGCAAAAC in terms of binding signal is 0.0449 % of ANNNNAAN 8-mers

The reported value for ATAGCAAC in terms of binding signal is 0.0184 % of ANNNNAAN 8-mers

The reported value for ACCTTAAA in terms of binding signal is 0.023 % of ANNNNAAN 8-mers

The reported value for AATCTAAC in terms of binding signal is 0.0339 % of ANNNNAAN 8-mers

The reported value for AGGACAAG in terms of binding signal is 0.0293 % of ANNNNAAN 8-mers

The reported value for ATCAGAAC in terms of binding signal is 0.0242 % of ANNNNAAN 8-mers

The reported value for AGACCAAT in terms of binding signal is 0.0219 % of ANNNNAAN 8-mers

The reported value for ACGCGAAT in terms of binding signal is 0.0512 % of ANNNNAAN 8-mers

The reported value for AGTGGAAG in terms of binding signal is 0.0357 % of ANNNNAAN 8-mers

The reported value for AACCCAAG in terms of binding signal is 0.015 % of ANNNNAAN 8-mers

The reported value for AAGGGAAC in terms of binding signal is 0.0506 % of ANNNNAAN 8-mers

The reported value for ATATAAAC in terms of binding signal is 0.0719 % of ANNNNAAN 8-mers

The reported value for AGTATAAC in terms of binding signal is 0.0328 % of ANNNNAAN 8-mers

The reported value for ATCGTAAG in terms of binding signal is 0.0449 % of ANNNNAAN 8-mers

The reported value for AAGAAAAT in terms of binding signal is 0.125 % of ANNNNAAN 8-mers

The reported value for AGTGAAAC in terms of binding signal is 0.0178 % of ANNNNAAN 8-mers

The reported value for AGTGGAAC in terms of binding signal is 0.0207 % of ANNNNAAN 8-mers

The reported value for ATATAAAT in terms of binding signal is 0.222 % of ANNNNAAN 8-mers

The reported value for ATCCTAAT in terms of binding signal is 0.0944 % of ANNNNAAN 8-mers

The reported value for ACACCAAT in terms of binding signal is 0.0173 % of ANNNNAAN 8-mers

The reported value for ATAAAAAA in terms of binding signal is 0.1 % of ANNNNAAN 8-mers

The reported value for ACGTCAAG in terms of binding signal is 0.0253 % of ANNNNAAN 8-mers

The reported value for ACTTTAAG in terms of binding signal is 0.0299 % of ANNNNAAN 8-mers

The reported value for ATTGTAAT in terms of binding signal is 0.357 % of ANNNNAAN 8-mers

The reported value for AGCGTAAC in terms of binding signal is 0.0207 % of ANNNNAAN 8-mers

The reported value for AAACAAAT in terms of binding signal is 0.266 % of ANNNNAAN 8-mers

The reported value for ACTTGAAC in terms of binding signal is 0.0207 % of ANNNNAAN 8-mers

The reported value for AGCGTAAG in terms of binding signal is 0.0293 % of ANNNNAAN 8-mers

The reported value for AAAGGAAG in terms of binding signal is 0.061 % of ANNNNAAN 8-mers

The reported value for AATTAAAT in terms of binding signal is 0.39 % of ANNNNAAN 8-mers

The reported value for AGGGTAAG in terms of binding signal is 0.0541 % of ANNNNAAN 8-mers

The reported value for ACGCTAAA in terms of binding signal is 0.0391 % of ANNNNAAN 8-mers

The reported value for ATTGCAAT in terms of binding signal is 0.061 % of ANNNNAAN 8-mers

The reported value for ACAGAAAA in terms of binding signal is 0.0472 % of ANNNNAAN 8-mers

The reported value for ACGCGAAA in terms of binding signal is 0.0265 % of ANNNNAAN 8-mers

The reported value for AGTGCAAC in terms of binding signal is 0.0219 % of ANNNNAAN 8-mers

The reported value for ACTAAAAG in terms of binding signal is 0.0368 % of ANNNNAAN 8-mers

The reported value for ACGCAAAG in terms of binding signal is 0.061 % of ANNNNAAN 8-mers

The reported value for AACAAAAT in terms of binding signal is 0.0926 % of ANNNNAAN 8-mers
